target: Ba/F3-FGFR1-transfected cells (Homo sapiens, UniProt P11362); test: Ba/F3-FGFR1 (minus IL3) cellular proliferation assay, Alamar Blue; format: cell-based; conditions: minus IL3, 384 well
Sequence (P11362 whole entry, change not shown): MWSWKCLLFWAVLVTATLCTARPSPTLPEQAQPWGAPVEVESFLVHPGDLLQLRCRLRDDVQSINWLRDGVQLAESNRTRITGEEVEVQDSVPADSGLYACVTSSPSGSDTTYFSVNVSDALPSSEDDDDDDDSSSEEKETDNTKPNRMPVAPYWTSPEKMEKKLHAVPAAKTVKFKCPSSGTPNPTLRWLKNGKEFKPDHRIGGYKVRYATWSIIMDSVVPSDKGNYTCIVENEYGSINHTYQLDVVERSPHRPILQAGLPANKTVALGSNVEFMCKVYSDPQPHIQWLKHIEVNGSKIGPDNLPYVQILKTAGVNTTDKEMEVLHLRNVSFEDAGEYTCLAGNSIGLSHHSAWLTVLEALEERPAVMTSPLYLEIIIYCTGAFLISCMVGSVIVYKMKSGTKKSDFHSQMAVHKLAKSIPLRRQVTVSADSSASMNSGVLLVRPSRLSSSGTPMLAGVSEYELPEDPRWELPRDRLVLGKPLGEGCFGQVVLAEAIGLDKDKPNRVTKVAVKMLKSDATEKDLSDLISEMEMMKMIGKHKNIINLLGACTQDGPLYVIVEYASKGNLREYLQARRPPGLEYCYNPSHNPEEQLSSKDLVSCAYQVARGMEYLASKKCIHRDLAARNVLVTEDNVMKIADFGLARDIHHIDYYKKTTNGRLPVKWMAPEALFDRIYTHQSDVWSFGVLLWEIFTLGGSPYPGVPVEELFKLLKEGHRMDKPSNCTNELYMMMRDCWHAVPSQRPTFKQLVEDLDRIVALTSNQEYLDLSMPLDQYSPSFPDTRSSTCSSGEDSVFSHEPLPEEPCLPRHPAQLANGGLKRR
Readout: BAF3-FGFR 1 (MIN IL3) 384 well pIC50

Molecule Smiles | Assay System | Result Number
COc1cc(OC)cc(N(CCNC(C)C)c2ccc3ncc(-c4ccnc(C(=O)NCCCN)c4)nc3c2)c1 | Ba/F3-FGFR1-transfected cells (Homo sapiens, UniProt P11362) | 6.46

P. COc1cc(OC)cc(N(CCCO)c2ccc3ncc(-c4ccnc(C(=O)NCCCCCN)c4)nc3c2)c1
Q. COc1cc(OC)cc(N(CCNC(C)C)c2ccc3ncc(-c4ccn(C)c4)nc3c2)c1
Prompt: Lower value of BAF3-FGFR 1 (MIN IL3) 384 well pIC50 belongs to which: P or Q ? To answer, give the label that identifies your chosen option.
Completion: P
(P: 5.1, Q: 8.13)

====

biological target: FGFR1 (h) (Homo sapiens); experiment: FGFR1 (enzymatic assay), TR-FRET; type: biochemical; conditions: read-out: FGFR 1 pIC50 (converted)
Sequence (P11362 22-822): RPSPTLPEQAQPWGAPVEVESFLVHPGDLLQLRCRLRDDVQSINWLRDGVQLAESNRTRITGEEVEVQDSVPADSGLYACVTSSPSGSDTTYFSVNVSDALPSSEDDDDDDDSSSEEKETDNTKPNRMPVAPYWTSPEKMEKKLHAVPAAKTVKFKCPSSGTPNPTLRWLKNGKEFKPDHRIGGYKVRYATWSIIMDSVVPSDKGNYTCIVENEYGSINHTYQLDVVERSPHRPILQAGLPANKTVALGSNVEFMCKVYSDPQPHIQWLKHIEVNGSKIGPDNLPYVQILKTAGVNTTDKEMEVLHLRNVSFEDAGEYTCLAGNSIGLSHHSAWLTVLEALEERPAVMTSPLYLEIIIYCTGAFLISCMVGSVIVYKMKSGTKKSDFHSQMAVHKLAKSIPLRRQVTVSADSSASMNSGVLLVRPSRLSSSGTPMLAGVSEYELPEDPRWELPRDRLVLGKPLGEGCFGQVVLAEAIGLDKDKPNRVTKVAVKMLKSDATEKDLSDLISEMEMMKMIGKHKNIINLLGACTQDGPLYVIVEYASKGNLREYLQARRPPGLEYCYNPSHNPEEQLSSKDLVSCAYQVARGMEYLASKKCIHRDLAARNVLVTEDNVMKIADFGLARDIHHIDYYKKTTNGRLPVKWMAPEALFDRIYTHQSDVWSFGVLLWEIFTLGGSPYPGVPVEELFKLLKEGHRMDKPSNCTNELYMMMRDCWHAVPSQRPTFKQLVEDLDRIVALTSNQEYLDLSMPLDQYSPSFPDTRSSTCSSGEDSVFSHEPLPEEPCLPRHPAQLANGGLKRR
Readout: IC50 (nM)

Molecule Smiles | Assay System | Unit Descriptor | Result Number
COc1cc(OC)cc(N(CC2CC2)c2ccc3ncc(-c4nnn[nH]4)nc3c2)c1 | FGFR1 (h) (Homo sapiens) | nM | 57.5

A. COc1cc(OC)cc(N(CC2CC2)c2ccc3ncc(-c4cn(CCO)nn4)nc3c2)c1
B. CNc1ccc(-c2cnc3ccc(N(CCCNCC(F)(F)F)c4cc(OC)cc(OC)c4)cc3n2)cn1
C. COc1cc(OC)cc(N(CCNC(C)C)c2ccc3ncc(C(=O)N4CCOCC4)nc3c2)c1
Prompt: Could you please order the items by IC50, going from the lowest number to the highest? Rank them, then answer with their labels in that order.
Completion: B, A, C

====

test system: Ba/F3-FGFR1-transfected cells in the presence of 10 ng/ml murine IL3; experiment: Ba/F3-FGFR1 (plus IL3) cellular proliferation counterscreen, Alamar Blue; type: cell-based; conditions: Mus musculus; plus IL3, 384 well; read-out: BAF3-FGFR 1 (PLUS IL3) 384 well pIC50 (converted)
As shown below, each of these molecules has a reported IC50 value.

Worked examples follow.
Molecule Smiles | Result
COc1cc(OC)cc(N(CC#Cc2ncccn2)c2ccc3ncc(-c4cccnc4)nc3c2)c1 | 7.41 µM
COc1cc(OC)cc(N(CCCNCC(F)(F)F)c2ccc3ncc(-c4cnc(OC)nc4)nc3c2)c1 | > 10 µM

Prompt: What does the data say about its IC50? Entry: `COc1cc(OC)cc(N(CCCNCC(F)(F)F)c2ccc3ncc(-c4ccnc(C(=O)NCCCCCO)c4)nc3c2)c1`
Completion: > 10 µM

Prompt: What does the data say about its IC50? Entry: `COc1cc(OC)cc(N(CCCO)c2ccc3ncc(-c4ccnc(Cl)c4)nc3c2)c1`
Completion: > 10 µM

====

biological target: Ba/F3-KDR-transfected cells (Homo sapiens); test: Ba/F3-KDR (minus IL3) cellular proliferation assay, Alamar Blue; type: cell-based; conditions: minus IL3
Sequence (P35968 whole entry, change not shown): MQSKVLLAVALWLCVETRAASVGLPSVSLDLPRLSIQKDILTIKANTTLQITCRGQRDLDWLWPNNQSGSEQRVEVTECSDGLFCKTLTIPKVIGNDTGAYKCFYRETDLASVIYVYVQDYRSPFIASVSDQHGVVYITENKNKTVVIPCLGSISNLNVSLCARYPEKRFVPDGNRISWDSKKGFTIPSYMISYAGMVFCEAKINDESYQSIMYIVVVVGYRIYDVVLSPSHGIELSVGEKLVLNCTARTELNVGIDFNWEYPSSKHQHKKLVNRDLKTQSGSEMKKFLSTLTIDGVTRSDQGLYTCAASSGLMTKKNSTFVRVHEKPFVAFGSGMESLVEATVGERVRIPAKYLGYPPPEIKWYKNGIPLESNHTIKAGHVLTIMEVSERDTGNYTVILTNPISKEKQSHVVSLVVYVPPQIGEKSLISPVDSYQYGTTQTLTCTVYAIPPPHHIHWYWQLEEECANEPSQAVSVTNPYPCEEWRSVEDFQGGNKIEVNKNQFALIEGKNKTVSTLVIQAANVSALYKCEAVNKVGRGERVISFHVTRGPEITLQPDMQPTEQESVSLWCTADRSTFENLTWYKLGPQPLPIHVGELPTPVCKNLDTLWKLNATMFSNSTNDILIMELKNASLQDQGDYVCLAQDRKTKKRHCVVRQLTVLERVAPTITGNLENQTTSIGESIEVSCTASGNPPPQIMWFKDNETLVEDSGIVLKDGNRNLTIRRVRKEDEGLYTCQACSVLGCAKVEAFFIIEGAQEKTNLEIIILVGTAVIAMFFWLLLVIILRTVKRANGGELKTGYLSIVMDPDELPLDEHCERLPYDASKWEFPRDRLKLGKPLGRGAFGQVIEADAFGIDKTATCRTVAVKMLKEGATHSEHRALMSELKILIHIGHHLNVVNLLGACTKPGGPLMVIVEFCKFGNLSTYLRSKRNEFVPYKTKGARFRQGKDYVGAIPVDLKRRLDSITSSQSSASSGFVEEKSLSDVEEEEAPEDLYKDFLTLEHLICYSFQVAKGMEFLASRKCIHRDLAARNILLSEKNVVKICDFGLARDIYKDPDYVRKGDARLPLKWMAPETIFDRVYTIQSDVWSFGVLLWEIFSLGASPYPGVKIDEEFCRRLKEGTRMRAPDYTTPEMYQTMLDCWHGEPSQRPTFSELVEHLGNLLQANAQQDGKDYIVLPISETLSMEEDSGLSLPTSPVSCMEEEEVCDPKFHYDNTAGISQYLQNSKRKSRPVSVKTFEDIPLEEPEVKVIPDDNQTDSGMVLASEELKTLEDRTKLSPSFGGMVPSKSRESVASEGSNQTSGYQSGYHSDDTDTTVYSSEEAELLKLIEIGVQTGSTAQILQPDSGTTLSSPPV
Readout: BAF3-KDR (MIN IL3) 384 well pIC50

Molecule Smiles | Assay System | Result Number
COc1cc(OC)cc(N(CCN2CCOCC2)c2ccc3ncc(-c4ccc(NC(=O)N5CCOCC5)nc4)nc3c2)c1 | Ba/F3-KDR-transfected cells (Homo sapiens) | 5.11
COc1cc(OC)cc(N(CCN2CCNCC2)c2ccc3ncc(-c4ccc(N)nc4)nc3c2)c1 | Ba/F3-KDR-transfected cells (Homo sapiens) | 5.66

====

Molecular target: Ba/F3-FGFR4-transfected cells (Homo sapiens, UniProt P22455)
Sequence (P22455 whole entry, change not shown): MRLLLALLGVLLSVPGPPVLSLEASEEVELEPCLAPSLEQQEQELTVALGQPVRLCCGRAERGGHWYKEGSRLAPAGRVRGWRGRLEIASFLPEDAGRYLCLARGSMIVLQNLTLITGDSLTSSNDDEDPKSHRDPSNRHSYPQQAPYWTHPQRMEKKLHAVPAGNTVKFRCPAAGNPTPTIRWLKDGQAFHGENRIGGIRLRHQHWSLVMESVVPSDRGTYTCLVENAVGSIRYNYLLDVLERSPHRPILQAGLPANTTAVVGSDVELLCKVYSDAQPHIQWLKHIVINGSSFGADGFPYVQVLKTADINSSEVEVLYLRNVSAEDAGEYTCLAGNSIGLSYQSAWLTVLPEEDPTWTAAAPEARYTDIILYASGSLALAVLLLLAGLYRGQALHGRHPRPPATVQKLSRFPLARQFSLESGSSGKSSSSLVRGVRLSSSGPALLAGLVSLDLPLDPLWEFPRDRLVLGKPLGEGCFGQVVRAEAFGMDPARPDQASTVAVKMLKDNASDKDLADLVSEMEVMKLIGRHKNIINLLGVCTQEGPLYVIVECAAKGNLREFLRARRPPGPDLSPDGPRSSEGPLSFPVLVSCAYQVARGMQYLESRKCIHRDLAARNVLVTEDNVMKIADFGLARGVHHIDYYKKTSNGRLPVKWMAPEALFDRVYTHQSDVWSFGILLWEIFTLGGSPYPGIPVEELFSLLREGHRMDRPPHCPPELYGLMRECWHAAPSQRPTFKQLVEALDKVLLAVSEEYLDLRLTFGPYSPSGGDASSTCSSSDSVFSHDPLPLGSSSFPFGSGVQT
Test: Ba/F3-FGFR4 cellular proliferation assay, Alamar Blue
Assay type: cell-based
Procedure: Ba/F3-FGFR4 (Cellular Proliferation Assay) In a 384 well plate, 100 nl of compound dilution in DMSO was sprayed before adding 50 μl cell culture medium (phenol red free RPMI-1640, 10% FBS, 2 mM L-Glutamine and 50 μg/ml Gentamycin) containing 20000 cells per well of Ba/F3-FGFR4-transfected cells. Cells were put in an incubator at 37° C. and 5% CO2. […]
Readout: BAF3-FGFR4 pIC50

Compound | BAF3-FGFR4 pIC50
COc1cc(OC)cc(N(CCO)c2ccc3ncc(-c4ccc(N5CCNCC5)cc4)nc3c2)c1 [Compound 166] | 6.7
COc1cc(OC)cc(N(CCCO)c2ccc3ncc(-c4ccnc(C(=O)N5CCOCC5)c4)nc3c2)c1 [Compound 43] | 6.0
CNC(=O)c1cc(-c2cnc3ccc(N(CCNC(C)C)c4cc(OC)cc(OC)c4)cc3n2)ccn1 [Compound 14] | 6.8
COc1cc(OC)cc(N(CC(O)CO)c2ccc3ncc(-c4ccc(N)nc4)nc3c2)c1 (centres unmarked) [Compound 74] | 6.1
COc1cc(OC)cc(N(CCN2CCOCC2)c2ccc3ncc(-c4ccc(N)nc4)nc3c2)c1 [Compound 169] | 6.0

====

Readout: melting point (°C)

Compound | Unit Descriptor | melting point
COc1cc(OC)cc(N(CCCO)c2ccc3ncc(-c4ccnc(C(=O)NCCCN)c4)nc3c2)c1 | °C | 110
COc1cc(OC)cc(N(CC(O)C(F)(F)F)c2ccc3ncc(-c4cccnc4)nc3c2)c1 (single isomer, unassigned) [Compound 53] | °C | 211
COc1cc(OC)cc(N(CCCO)c2ccc3ncc(-c4ccnc(C(=O)NCCCCN)c4)nc3c2)c1 | °C | 130
COc1cc(OC)cc(N(CCCO)c2ccc3ncc(-c4cccnc4F)nc3c2)c1 | °C | 115
COCC(O)CN(c1cc(OC)cc(OC)c1)c1ccc2ncc(-c3cccnc3)nc2c1 (single isomer, unassigned) [Compound 46] | °C | 154

a. COc1cc(OC)cc(N(CC2CC2)c2ccc3ncc(-n4cncn4)nc3c2)c1
b. CNC(=O)c1cc(-c2cnc3ccc(N(CCNCC(F)(F)F)c4cc(OC)cc(OC)c4)cc3n2)ccn1
Prompt: Lower value of melting point belongs to which: a or b ? To answer, give the label that identifies your chosen option.
Completion: b

A. COc1cc(OC)cc(N(CCO)c2ccc3ncc(-c4ccc(OC)nc4)nc3c2)c1
B. COc1cc(OC)cc(N(CC2CC2)c2ccc3ncc(-c4cn(C)cn4)nc3c2)c1
Prompt: Parameter check: reported melting point is higher for which label, A or B ? To answer, give the label that identifies your chosen option.
Completion: A
(A: 195 °C, B: 136 °C)

A. COc1cc(OC)cc(N(CC2CC2)c2ccc3ncc(-c4ocnc4C)nc3c2)c1
B. COc1cc(OC)cc(N(CCO)c2ccc3ncc(-n4cnc(CO)c4)nc3c2)c1
Prompt: Lower value of melting point belongs to which: A or B ? To answer, give the label that identifies your chosen option.
Completion: A

====

target: FGFR3 (h) (Homo sapiens, UniProt P22607); experiment: FGFR3 (enzymatic assay), TR-FRET; assay type: biochemical; conditions: read-out: FGFR 3 pIC50 (converted)
Sequence (P22607 23-806): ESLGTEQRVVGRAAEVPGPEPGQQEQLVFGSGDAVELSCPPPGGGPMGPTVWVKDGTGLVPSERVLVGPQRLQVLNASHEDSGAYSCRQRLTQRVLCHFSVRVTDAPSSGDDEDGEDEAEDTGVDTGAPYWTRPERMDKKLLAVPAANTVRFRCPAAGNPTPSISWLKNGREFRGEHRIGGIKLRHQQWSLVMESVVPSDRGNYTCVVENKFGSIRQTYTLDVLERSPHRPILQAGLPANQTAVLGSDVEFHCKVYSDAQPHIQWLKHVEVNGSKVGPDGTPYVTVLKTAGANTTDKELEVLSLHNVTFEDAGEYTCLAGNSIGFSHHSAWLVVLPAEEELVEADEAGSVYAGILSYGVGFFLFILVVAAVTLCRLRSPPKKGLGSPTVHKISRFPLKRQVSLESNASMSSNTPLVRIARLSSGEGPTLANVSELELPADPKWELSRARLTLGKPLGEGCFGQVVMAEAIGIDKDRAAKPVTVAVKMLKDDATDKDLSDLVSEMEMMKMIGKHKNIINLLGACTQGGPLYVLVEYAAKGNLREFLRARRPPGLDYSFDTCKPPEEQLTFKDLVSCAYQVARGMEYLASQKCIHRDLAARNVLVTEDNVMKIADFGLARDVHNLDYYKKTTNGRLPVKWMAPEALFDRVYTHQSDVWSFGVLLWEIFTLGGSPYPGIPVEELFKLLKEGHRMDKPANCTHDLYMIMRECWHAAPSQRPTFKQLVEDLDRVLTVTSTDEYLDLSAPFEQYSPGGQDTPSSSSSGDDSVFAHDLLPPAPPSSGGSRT
Readout: IC50 (nM)

Worked examples follow.
Compound | Result Number
COc1cc(OC)cc(N(CC2CC2)c2ccc3ncc(N4CCOCC4)nc3c2)c1 [Compound 63] | 138
COc1cc(OC)cc(N(CC2CC2)c2ccc3ncc(-n4cnc(C)c4)nc3c2)c1 [Compound 30] | 26.9
COc1cc(OC)cc(N(CCNC(C)C)c2ccc3ncc(-c4ccc(N5CCOCC5)nc4)nc3c2)c1 [Compound 168] | 3.24
COc1cc(OC)cc(N(CCO)c2ccc3ncc(-c4ccc(N5CCNCC5)cc4)nc3c2)c1 [Compound 166] | 0.832
COc1cc(OC)cc(N(CC2CC2)c2ccc3ncc(-c4ccnc(N5CCOCC5)c4)nc3c2)c1 [Compound 90] | 282
COCC(CN(c1cc(OC)cc(OC)c1)c1ccc2ncc(-c3cccnc3)nc2c1)OC(C)=O (single isomer, unassigned) [Compound 76] | 5.75
COc1cc(OC)cc(N(CC(O)CO)c2ccc3ncc(-c4ccc(N)nc4)nc3c2)c1 (stereo not shown) [Compound 74] | 4.37
COc1cc(OC)cc(N(CCN2CCNCC2)c2ccc3ncc(-c4ccc(N)nc4)nc3c2)c1 [Compound 59] | 9.12
COc1cc(OC)cc(N(CC2CC2)c2ccc3ncc(N4CCN(CCO)CC4)nc3c2)c1 [Compound 49] | 126
COc1cc(OC)cc(N(CCO)c2ccc3ncc(N4CCC(CN)CC4)nc3c2)c1 [Compound 84] | 40.7

P. COc1cc(OC)cc(N(CCO)c2ccc3ncc(-c4ccncc4)nc3c2)c1 [Compound 11]
Q. COc1cc(OC)cc(N(CCO)c2ccc3ncc(-c4ccc(N5CCN(C)CC5)nc4)nc3c2)c1 [Compound 163]
R. COc1cc(OC)cc(N(CC2CC2)c2ccc3ncc(C#Cc4cncn4C)nc3c2)c1 [Compound 22]
S. COc1cc(OC)cc(N(CC2CC2)c2ccc3ncc(-n4cccn4)nc3c2)c1 [Compound 95]
Prompt: Arrange the 4 compounds from largest to smallest IC50. Rank them, then answer with their labels in that order.
Completion: S, R, Q, P

Value source: patent US10052320B2
